- Tested on: Wolbachia pipientis
- assay-protocol: Anti-Wolbachia Cell-Based Screen
- Assay type: functional
- Set-up: scale not given: in the data most compounds retested in dose-response had high values
- test-context: 5 µM
The campaign covered roughly 48,000 compounds. About 13,000 (27%) showed an effect of 50% or more. Some of the results follow.
reported-metric: Percent Effect (%)
Write it as a number; the unit % goes unstated.

Solved cases below.
{"molecule": "CN(C)C(=O)COCC1CN(Cc2ccco2)Cc2ncn(C)c21.O=C(O)C(F)(F)F.O=C(O)C(F)(F)F (stereo not given)", "display-unit": "%", "endpoint-result": 91.74}
{"molecule": "CCn1cc2c(n1)CN(Cc1ccoc1)CC2COCC1CC1.O=C(O)C(F)(F)F (stereo not given)", "display-unit": "%", "endpoint-result": -14.5}
{"molecule": "CN(C)C(=O)COCc1nn(C)c2c1CCN(Cc1ccco1)C2.O=C(O)C(F)(F)F", "display-unit": "%", "endpoint-result": -2.792}
{"molecule": "CCOCC1CN(Cc2ccoc2)Cc2nn(CC3CC3)cc21.O=C(O)C(F)(F)F (stereo not given)", "display-unit": "%", "endpoint-result": -8.348}

Now look at this entry.
QUERY: Endpoint output: Percent Effect of CCN1CCCC(c2c(-c3ccccc3)ncn2Cc2csc(N)n2)C1 (stereo not given) . Value?
RESULT: 4.265
